Source listed as ChEMBL document CHEMBL4706474.

Entries annotated with measured fraction unbound
- experiment.description: Protein binding in mouse plasma assessed as bound fraction by LC-MS analysis based ultracentrifugation assay
- Type: ADME, cell-free
- condition.summary: read-out: PPB (converted)
Lab note: jot down the number only; don't add units.

Example results:
Cc1cc(N[C@H]2CCc3ccc(Cl)cc3C2)n2nc(C(C)(F)F)nc2n1 : 0.026
Cc1cc(Nc2ccc(S(F)(F)(F)(F)F)cc2)n2nc(C(C)(F)F)nc2n1 : 0.003
Cc1cc(NC2Cc3cc(F)c(F)cc3C2)n2nc(C(C)(F)F)nc2n1 : 0.047

Now take the following compound into account.
Qu. Value lookup for fraction unbound; key = Cc1cc(NC2CCc3cc(Br)ccc3C2)n2nc(C(C)(F)F)nc2n1 (stereo in doubt)
Ans. 0.008

----------
- experiment.description: Apparent half-life in Sprague-Dawley rat at 1.8 mg/kg, iv administered as infusion for 10 mins by LC-MS analysis
- Assay type: ADME, organism-based
- condition.summary: in vivo, read-out: t1/2(app) (converted)
readout.name: half-life (h)
Respond with the bare value in h.

Qu. Value lookup for half-life; key = Cc1cc(NC2Cc3cc(F)c(F)cc3C2)n2nc(C(C)(F)F)nc2n1
Ans. 11.2

----------
- experiment.description: Oral bioavailability in Sprague-Dawley rat at 17.5 mg/kg measured over 24 hrs by LC-MS analysis
- Format: ADME, organism-based
- condition.summary: in vivo
readout.name: bioavailability (%)
Respond with the bare value in %.

Qu. Value lookup for bioavailability; key = Cc1cc(N[C@H]2CCc3ccc(Cl)cc3C2)n2nc(C(C)(F)F)nc2n1
Ans. 67

----------
- target.system: Cytochrome P450 2C8 (Homo sapiens, UniProt P10632)
- Sequence (P10632 whole entry): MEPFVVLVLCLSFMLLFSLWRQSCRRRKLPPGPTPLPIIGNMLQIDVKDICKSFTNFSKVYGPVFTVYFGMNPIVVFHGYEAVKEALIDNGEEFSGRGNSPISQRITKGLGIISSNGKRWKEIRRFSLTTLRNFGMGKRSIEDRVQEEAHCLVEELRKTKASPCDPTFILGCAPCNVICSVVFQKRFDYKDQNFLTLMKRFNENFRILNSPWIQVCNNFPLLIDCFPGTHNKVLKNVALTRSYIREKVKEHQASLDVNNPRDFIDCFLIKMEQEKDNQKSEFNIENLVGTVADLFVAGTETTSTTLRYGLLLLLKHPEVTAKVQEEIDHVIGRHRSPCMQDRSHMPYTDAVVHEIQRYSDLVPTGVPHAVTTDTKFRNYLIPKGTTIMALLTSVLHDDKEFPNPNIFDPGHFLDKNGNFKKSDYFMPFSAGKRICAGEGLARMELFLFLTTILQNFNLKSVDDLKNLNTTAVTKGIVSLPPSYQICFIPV
- experiment.description: Inhibition of CYP2C8 in human liver microsomes using isoform-specific probe substrates in presence of NADPH-generating system by LC-MS analysis
readout.name: IC50

Qu. Value lookup for IC50; key = Cc1cc(N[C@H]2CCc3ccc(Cl)cc3C2)n2nc(C(C)(F)F)nc2n1
Ans. > 20 µM

----------
Entries annotated with measured Tmax
- experiment.description: Tmax in Swiss mouse at 20 mg/kg, po administered as single dose via gavage measured over 24 hrs by LC-MS analysis
- Format: ADME, organism-based
- condition.summary: in vivo
Respond with the bare value in h.

Cc1cc(NC2CCc3cc(Cl)ccc3C2)n2nc(C(C)(F)F)nc2n1 (stereo in doubt) : 1
Cc1cc(NC2CCc3ccc(Br)cc3C2)n2nc(C(C)(F)F)nc2n1 (stereo in doubt) : 1
Cc1cc(N[C@H]2CCc3ccc(Cl)cc3C2)n2nc(C(C)(F)F)nc2n1 : 1

Now take the following compound into account.
Qu. Value lookup for Tmax; key = Cc1cc(NC2CCc3cc(Br)ccc3C2)n2nc(C(C)(F)F)nc2n1 (stereo in doubt)
Ans. 1

----------
Please consider the recorded IC50 for Dihydroorotate dehydrogenase (quinone), mitochondrial (Rattus norvegicus, UniProt Q63707) in what follows.

Cc1cc(N[C@H]2CCc3ccc(Cl)cc3C2)n2nc(C(C)(F)F)nc2n1 : > 100 µM

Now take the following compound into account.
Qu. Value lookup for IC50; key = Cc1cc(NC2Cc3cc(F)c(F)cc3C2)n2nc(C(C)(F)F)nc2n1
Ans. > 100 µM

----------
- experiment.description: Cmax in Sprague-Dawley rat at 24.4 mg/kg, po measured over 24 hrs by LC-MS analysis
- Assay type: ADME, organism-based
- Set-up: route oral, dose 24.4 mg/kg, time >24
- condition.summary: in vivo
readout.name: Cmax (µM)
Respond with the bare value in µM.

Qu. Value lookup for Cmax; key = Cc1cc(NC2CCc3cc(Br)ccc3C2)n2nc(C(C)(F)F)nc2n1 (stereo in doubt)
Ans. 37

----------
Entries annotated with measured AUC
- experiment.description: AUC (0 to infinity) in Swiss mouse at 20 mg/kg, po administered as single dose via gavage measured over 24 hrs by LC-MS analysis
- Type: ADME, organism-based
- Parameters: route oral, dose 20 mg/kg, time >24
- condition.summary: in vivo
Respond with the bare value in µM·h.

Example results:
Cc1cc(NC2CCc3cc(Cl)ccc3C2)n2nc(C(C)(F)F)nc2n1 (stereo in doubt) : 19.7
Cc1cc(N[C@H]2CCc3ccc(Cl)cc3C2)n2nc(C(C)(F)F)nc2n1 : 22.7
Cc1cc(NC2Cc3cc(F)c(F)cc3C2)n2nc(C(C)(F)F)nc2n1 : 169

Qu. Value lookup for AUC; key = Cc1cc(NC2CCc3cc(Br)ccc3C2)n2nc(C(C)(F)F)nc2n1 (stereo in doubt)
Ans. 51

Qu. Value lookup for AUC; key = Cc1cc(NC2CCc3ccc(Br)cc3C2)n2nc(C(C)(F)F)nc2n1 (stereo in doubt)
Ans. 16.7

----------
- experiment.description: Protein binding in rat plasma assessed as bound fraction by LC-MS analysis based ultracentrifugation assay
- Format: ADME, cell-free
- condition.summary: read-out: PPB (converted)
readout.name: fraction unbound

Cc1cc(NC2CCc3ccc(Br)cc3C2)n2nc(C(C)(F)F)nc2n1 (stereo in doubt) : 0.028
Cc1cc(NC2Cc3cc(F)c(F)cc3C2)n2nc(C(C)(F)F)nc2n1 : 0.058

Qu. Value lookup for fraction unbound; key = Cc1cc(NC2CCc3cc(Br)ccc3C2)n2nc(C(C)(F)F)nc2n1 (stereo in doubt)
Ans. 0.003

Qu. Value lookup for fraction unbound; key = Cc1cc(Nc2ccc(S(F)(F)(F)(F)F)cc2)n2nc(C(C)(F)F)nc2n1
Ans. 0.023

Qu. Value lookup for fraction unbound; key = Cc1cc(NC2CCc3cc(Cl)ccc3C2)n2nc(C(C)(F)F)nc2n1 (stereo in doubt)
Ans. 0.008

Qu. Value lookup for fraction unbound; key = Cc1cc(N[C@H]2CCc3ccc(Cl)cc3C2)n2nc(C(C)(F)F)nc2n1
Ans. 0.036

----------
- experiment.description: in vivo
- condition.summary: Sprague-Dawley, rat, po, 18.3 mg/kg
readout.name: Tmax at 24 h (h)
Respond with the bare value in h.

Qu. Value lookup for Tmax at 24 h; key = Cc1cc(NC2CCc3ccc(Br)cc3C2)n2nc(C(C)(F)F)nc2n1 (stereo in doubt)
Ans. 3.3

----------
- experiment.description: Cmax in Sprague-Dawley rat at 18.2 mg/kg, po measured over 24 hrs by LC-MS analysis
- Type: ADME, organism-based
- Parameters: route oral, dose 18.2 mg/kg, time >24
- condition.summary: in vivo
readout.name: Cmax (µM)
Respond with the bare value in µM.

Qu. Value lookup for Cmax; key = Cc1cc(NC2CCc3cc(Cl)ccc3C2)n2nc(C(C)(F)F)nc2n1 (stereo in doubt)
Ans. 23.8

----------
Entries annotated with measured IC50
- target.system: Cytochrome P450 3A4 (Homo sapiens)
- Sequence (P08684 whole entry, canonical isoform): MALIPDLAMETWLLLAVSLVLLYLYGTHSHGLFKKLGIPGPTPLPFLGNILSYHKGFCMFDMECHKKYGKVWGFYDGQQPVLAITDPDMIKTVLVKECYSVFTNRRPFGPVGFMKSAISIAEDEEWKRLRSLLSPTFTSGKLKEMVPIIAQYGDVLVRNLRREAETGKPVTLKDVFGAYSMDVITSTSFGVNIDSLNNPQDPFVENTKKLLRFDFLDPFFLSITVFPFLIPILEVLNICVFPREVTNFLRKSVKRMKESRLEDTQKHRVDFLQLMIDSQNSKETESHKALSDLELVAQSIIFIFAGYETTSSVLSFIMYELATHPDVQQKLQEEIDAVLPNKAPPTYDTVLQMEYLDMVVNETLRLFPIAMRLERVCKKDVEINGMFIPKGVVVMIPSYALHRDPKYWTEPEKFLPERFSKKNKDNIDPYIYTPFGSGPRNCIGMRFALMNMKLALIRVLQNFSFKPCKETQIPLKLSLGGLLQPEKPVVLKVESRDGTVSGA
- experiment.description: Inhibition of CYP3A4 in human liver microsomes using isoform-specific probe substrates in presence of NADPH-generating system by LC-MS analysis
- Type: ADME
- condition.summary: read-out: IC50

Qu. Form entry - test system: Cytochrome P450 3A4 (Homo sapiens); read-out: IC50; compound: Cc1cc(N[C@H]2CCc3ccc(Cl)cc3C2)n2nc(C(C)(F)F)nc2n1
Ans. > 20 µM

Qu. Form entry - test system: Cytochrome P450 3A4 (Homo sapiens); read-out: IC50; compound: Cc1cc(NC2Cc3cc(F)c(F)cc3C2)n2nc(C(C)(F)F)nc2n1
Ans. > 20 µM

----------
- experiment.description: Intrinsic clearance in mouse liver microsomes at 1 uM by LC-MS analysis
- Format: ADME, Microsome
readout.name: intrinsic clearance (µL/min)
Respond with the bare value in µL/min.

Example results:
Cc1cc(NC2CCc3cc(F)c(F)cc3C2)n2nc(C(C)(F)F)nc2n1 (stereo in doubt; 19) : 59
Cc1cc(NC2Cc3cc(F)c(F)cc3C2)n2nc(C(C)(F)F)nc2n1 : 21
Cc1cc(NC2CCc3cc(F)c(C(F)(F)F)cc3C2)n2nc(C(C)(F)F)nc2n1 (centres undefined) : 17
Cc1cc(NC2Cc3cccc(C(F)(F)F)c3C2)n2nc(C(C)(F)F)nc2n1 (centres undefined) : 119
Cc1cc(NC2Cc3cccc(F)c3C2)n2nc(C(C)(F)F)nc2n1 (centres undefined) : 76

Qu. Value lookup for intrinsic clearance; key = Cc1cc(NC2CCc3cc(Cl)ccc3C2)n2nc(C(C)(F)F)nc2n1 (stereo in doubt)
Ans. 44

Qu. Value lookup for intrinsic clearance; key = Cc1cc(NC2CCc3cc(Br)ccc3C2)n2nc(C(C)(F)F)nc2n1 (stereo in doubt; 12)
Ans. 40

Qu. Value lookup for intrinsic clearance; key = Cc1cc(NC2CCc3ccc(Cl)cc3C2)n2nc(C(F)(F)F)nc2n1 (stereo in doubt; 24)
Ans. 24
